# TARGET OR TEST SYSTEM: T1, cynomolgus monkey CD8A on primary cynomolgus monkey CD8+ T cells (cynomolgus monkey, UniProt P01732 23-235 (human entry))
# T1 construct: also called Cyno CD8alpha
# T1 sequence (P01732 other isoform, or with tags, fused parts or gaps limits assumed): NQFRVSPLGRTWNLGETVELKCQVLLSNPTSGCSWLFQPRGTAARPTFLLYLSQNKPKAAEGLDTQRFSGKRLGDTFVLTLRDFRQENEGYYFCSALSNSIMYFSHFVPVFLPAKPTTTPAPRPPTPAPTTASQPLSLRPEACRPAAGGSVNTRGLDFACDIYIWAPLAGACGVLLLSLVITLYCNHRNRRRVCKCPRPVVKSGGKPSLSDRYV
# PROTOCOL TEXT: flow cytometry, cyno CD8+ T cells, 0.2 uM FN3
# Procedure: Binding of the 190 ELISA hits to human and cynomologous monkey primary CD8 T cells was assessed by flow cytometry. The FN3 domain molecules were diluted to 2 μM and 0.2 μM in PBS and incubated with human or cynomologous monkey CD8+ T cells in 96-well format. […] Cells were gating on live cells and median fluorescence intensity of the bound Centyrins (PE channel) was calculated using Cytobank software.
ENDPOINT LABEL: Cyno T-cell Binding 0.2 uM (MFI)
Numbers only; they are read as MFI.

binder="P282DR9P1359_A12 (designed binder, FN3 domain) LPAPKNLVVSRVTEDSARLSWTAPEAAFDSFQIAYPEWPPPREAIVLTVPGSERSYDLTGLKPGTEYFVVIQGVKGGEISWPLSAIFTT" endpoint_label="Cyno T-cell Binding 0.2 uM (MFI)" readout_units=MFI measured_result=15500

GET /values?readout=Cyno T-cell Binding 0.2 uM (MFI)&item= P282DR9P1359_E6 (designed binder, FN3 domain) LPAPKNLVVSRVTEDSARLSWTAPDAAFDSFWIAYPEWPVQGEAIVLTVPGSERSYDLTGLKPGTEYFVVIQGVKGGTPSWPLSAIFTT
5060

Ok, now P282AR9P1356_A4 (designed binder, FN3 domain) LPAPKNLVVSRVTEDSARLSWVKRPNSFDSFLIQYQESEKVGEAIVLTVPGSERSYDLTGLKPGTEYTVSIYGVDVVDYEGRPRWSNPLSAIFTT
8630

Ok, now P283BR9P1363_C8 (designed binder, FN3 domain) LPAPKNLVVSRVTEDSARLSWAKTSDLHPLFDSFLIQYQESEKVGEAIVLTVPGSERSYDLTGLKPGTEYTVSIYGVDVKWEGNRPVASNPLSAIFTT
9080
